Provide the recorded pEC50 for the entries that follow.
Target: F508delCFTR (Homo sapiens, UniProt P13569, DEL508-508)
Construct: expressed in transfected cells; host or cells: CFBE4lo-F508delCFTR-HRP cells (human lung derived epithelial cell line, doxycycline-inducible)
Sequence (P13569 with tags, fused parts or gaps DEL508-508): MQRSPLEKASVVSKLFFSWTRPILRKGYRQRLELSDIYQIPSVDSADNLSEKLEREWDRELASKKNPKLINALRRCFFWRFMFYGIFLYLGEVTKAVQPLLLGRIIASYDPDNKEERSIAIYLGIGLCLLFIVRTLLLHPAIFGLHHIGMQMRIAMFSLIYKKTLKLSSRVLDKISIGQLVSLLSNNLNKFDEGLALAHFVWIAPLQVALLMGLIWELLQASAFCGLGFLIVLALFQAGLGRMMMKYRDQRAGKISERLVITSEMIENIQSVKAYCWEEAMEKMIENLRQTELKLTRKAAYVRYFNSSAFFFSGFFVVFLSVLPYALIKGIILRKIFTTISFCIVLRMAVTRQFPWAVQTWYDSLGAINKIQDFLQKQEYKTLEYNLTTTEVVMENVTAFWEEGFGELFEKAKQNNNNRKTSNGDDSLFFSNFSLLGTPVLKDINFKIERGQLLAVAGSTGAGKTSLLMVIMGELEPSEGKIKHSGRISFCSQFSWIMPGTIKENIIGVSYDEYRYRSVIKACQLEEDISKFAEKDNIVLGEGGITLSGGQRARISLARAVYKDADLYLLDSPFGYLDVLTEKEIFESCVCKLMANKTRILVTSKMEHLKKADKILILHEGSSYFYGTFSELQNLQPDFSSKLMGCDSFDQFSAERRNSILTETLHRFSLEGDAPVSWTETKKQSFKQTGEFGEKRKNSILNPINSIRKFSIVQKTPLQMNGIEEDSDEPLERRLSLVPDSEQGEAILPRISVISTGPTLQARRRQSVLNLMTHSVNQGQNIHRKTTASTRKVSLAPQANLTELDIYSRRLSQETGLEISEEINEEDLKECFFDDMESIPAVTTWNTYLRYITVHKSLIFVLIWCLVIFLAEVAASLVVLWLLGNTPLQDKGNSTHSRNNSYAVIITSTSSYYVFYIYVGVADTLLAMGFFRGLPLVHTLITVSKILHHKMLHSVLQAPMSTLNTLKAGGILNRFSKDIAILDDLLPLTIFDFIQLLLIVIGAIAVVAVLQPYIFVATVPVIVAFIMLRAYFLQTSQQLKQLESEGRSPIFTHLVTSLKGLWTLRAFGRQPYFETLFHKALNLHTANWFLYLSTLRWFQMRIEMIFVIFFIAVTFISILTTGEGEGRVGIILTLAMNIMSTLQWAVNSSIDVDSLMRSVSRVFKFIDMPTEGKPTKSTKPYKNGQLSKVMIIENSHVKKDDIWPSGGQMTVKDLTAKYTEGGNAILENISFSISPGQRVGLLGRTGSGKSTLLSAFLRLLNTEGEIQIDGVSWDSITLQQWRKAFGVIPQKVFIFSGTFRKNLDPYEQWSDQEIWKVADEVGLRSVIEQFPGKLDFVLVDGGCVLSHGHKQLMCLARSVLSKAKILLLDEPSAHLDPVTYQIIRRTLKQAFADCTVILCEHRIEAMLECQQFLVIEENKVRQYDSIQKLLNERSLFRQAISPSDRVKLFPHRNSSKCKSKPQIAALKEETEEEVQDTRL
Experiment: Cell Surface Expression-Horse Radish Peroxidase (CSE-HRP) Assay
Assay type: cell-based
Conditions: test compound without co-corrector; CFBE4lo-F508delCFTR-HRP cells, 18-24 hours at 33° C., HRP luminescence readout; read-out: EC50 (without co-corrector)
Description: Cell Surface Expression-Horse Radish Peroxidase (CSE-HRP) Assay […] The maximum % activity achieved for the test compound either without or with a co-corrector at any tested concentration is presented in Table 1 along with the respective EC50's calculated using the following general sigmoidal curve with variable Hill slope equation (described as Model 42 in the Accelrys® Assay Explorer v3.3 software): y=(a−d)/(1+(x/c)^b)+d […]
pEC50: −log10 of the molar value.

Q: Looking for the measured pEC50 of COc1cccc2c1C(C(=O)NS(=O)(=O)c1cccc3ccccc13)CCO2 (centres unmarked) , can you help?
Ans: 5.00 to 5.52

Q: Fill in the blank: the reported pEC50 of O=C(NS(=O)(=O)c1cccc2ccccc12)C1COc2c1cccc2C(F)(F)F (centres unmarked) is ____.
Ans: 5.00 to 5.52

Q: Please report the recorded pEC50 for COc1cccc2c1C(C(=O)NS(=O)(=O)c1cccc3cccnc13)CC(C)(C)O2 (centres unmarked) .
Ans: 5.00 to 5.52

Q: I am curious: what pEC50 value has been reported for `COc1ccc(C2CCC2)c2c1[C@H](C(=O)NS(=O)(=O)c1cccc3c1CCCN3)CO2` ?
Ans: > 5.52

Q: Please give the measured pEC50 for this compound: `COc1ccc(C2CCC2)c2c1[C@H](C(=O)NS(=O)(=O)c1cccc3c1CCCN3)CCO2`
Ans: > 5.52

Q: Sample COc1ccc(C2CCC2)c2c1OCC[C@@H]2C(=O)NS(=O)(=O)c1cccc2ncccc12 (single isomer, unassigned) — what was its pEC50?
Ans: 5.00 to 5.52

Q: For `COc1ccc(Br)c2c1[C@H](C(=O)NS(=O)(=O)c1cccc3ncccc13)CC(C)(C)O2` , what is its reported pEC50?
Ans: > 5.52

Q: Entry COc1ccc(Br)c2c1C(C(=O)NS(=O)(=O)c1cccc3cccnc13)CCO2 (centres unmarked) has what pEC50?
Ans: 5.00 to 5.52
